ASSAY_SYSTEM: T1, CEACAM5 (R&D Systems, 4128-CM-050) (human, UniProt P06731 35-685)
T1 construct: Immobilised on the ELISA plate; also called human CEACAM5
T1 sequence (looked up): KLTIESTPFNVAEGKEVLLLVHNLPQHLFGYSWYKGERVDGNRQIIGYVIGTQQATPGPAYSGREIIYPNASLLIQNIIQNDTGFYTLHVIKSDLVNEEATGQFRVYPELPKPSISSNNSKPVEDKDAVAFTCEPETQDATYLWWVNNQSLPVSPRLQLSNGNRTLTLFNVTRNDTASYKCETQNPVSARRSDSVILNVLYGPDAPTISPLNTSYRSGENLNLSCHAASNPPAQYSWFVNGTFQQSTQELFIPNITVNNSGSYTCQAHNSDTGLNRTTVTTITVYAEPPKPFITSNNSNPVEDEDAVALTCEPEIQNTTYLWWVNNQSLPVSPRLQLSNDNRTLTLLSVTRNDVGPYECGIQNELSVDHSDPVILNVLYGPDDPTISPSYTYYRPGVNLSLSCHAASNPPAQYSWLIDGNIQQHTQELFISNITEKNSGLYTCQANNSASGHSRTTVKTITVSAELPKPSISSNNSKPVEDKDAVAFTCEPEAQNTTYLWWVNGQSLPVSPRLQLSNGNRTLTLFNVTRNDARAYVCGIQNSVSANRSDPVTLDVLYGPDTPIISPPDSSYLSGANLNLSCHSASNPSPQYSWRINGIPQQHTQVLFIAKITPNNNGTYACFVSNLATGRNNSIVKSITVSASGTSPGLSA
TEST_SUMMARY: ELISA on immobilised CEACAM5, 4-parameter fit, duplicate
Kindly supply the reported EC50 values for the records listed here.
Answers are plain numbers, in nM.

Look over these answered cases.
(Y-S1-X)p-Fab^2 with Y Gd/DOTA, S1 -NH-(CH2)3-C(═O)-, X -Gly-Tyr*-CH2-C(═O)-NH-(CH2)2-Z1(#N)- (Fab, V domains shown, labeling may sit on this chain; sites not stated; labeling portion (MW 1045) on amino groups of the Fab, sites and chain not stated; 1-3 per Fab by MS, also called Ex-No 36; conjugate 36) VH: EVQLVESGGGLVQPGGSLRLSCAASGFNIRDTYMHWVRQAPGKGLEWVARIDPANGNSRYVPKFQGRFTISADTSRNTAYLQMNSLRAEDTAVYYCAPFGYYVSDYAMAYWGQGTLVTVSS VL: DIQLTQSPSSLSASVGDRVTITCRAGESVDIFGVGFLHWYQQKPGKAPKLLIYRASNLESGIPSRFSGSGSRTDFTLTISSLQPEDFATYYCQQTNEDPYTFGQGTKVEIKR    0.38
(Y-S1-X)p-Fab^2 with Y Gd/DOTA, S1 - (bond), X -Gly-Tyr-NH-(CH2)5-Z1(#S)- (Fab, V domains shown, labeling may sit on this chain; sites not stated; labeling portion (MW 1045) on amino groups of the Fab, sites and chain not stated; 1-3 per Fab by MS, also called Ex-No 37; conjugate 37) VH: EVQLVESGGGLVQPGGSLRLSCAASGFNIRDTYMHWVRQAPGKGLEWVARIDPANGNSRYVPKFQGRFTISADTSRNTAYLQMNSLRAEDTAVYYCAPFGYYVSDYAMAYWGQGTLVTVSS VL: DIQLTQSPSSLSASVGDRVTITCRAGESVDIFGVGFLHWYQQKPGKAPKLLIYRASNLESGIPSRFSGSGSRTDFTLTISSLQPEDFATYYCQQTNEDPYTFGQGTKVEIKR    0.23
(Y-S1-X)p-Fab^2 with Y Gd/DOTA, S1 - (bond), X -Gly-Tyr-Lys*-Z2(#N)- (Fab, V domains shown, labeling may sit on this chain; sites not stated; labeling portion (MW 988) on amino groups of the Fab, sites and chain not stated; 1-4 per Fab by MS, also called Ex-No 19; conjugate 19) VH: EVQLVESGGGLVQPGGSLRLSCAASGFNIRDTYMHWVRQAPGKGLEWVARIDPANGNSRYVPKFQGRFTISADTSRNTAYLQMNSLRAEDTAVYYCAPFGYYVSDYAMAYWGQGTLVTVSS VL: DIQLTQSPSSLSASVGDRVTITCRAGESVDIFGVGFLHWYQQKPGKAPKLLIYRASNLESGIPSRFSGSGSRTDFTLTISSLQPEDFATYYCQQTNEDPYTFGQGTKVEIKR    0.26
[DFO-C(═O)-CH2O-(1,3-Ph)-C(═O)-Gly-Tyr*-CH2-C(═O)-NH-(CH2)2-Z1(#S)]p-Fab^2 (Fab, V domains shown, labeling may sit on this chain; sites not stated; labeling portion (MW 1241) bound via 2-iminothiolane-treated amino groups of the Fab, sites and chain not stated; 1 per Fab by MS; free thiols capped with 2-iodoacetamide, No metal; also called Ex-No 60; Conjugate No. 60) VH: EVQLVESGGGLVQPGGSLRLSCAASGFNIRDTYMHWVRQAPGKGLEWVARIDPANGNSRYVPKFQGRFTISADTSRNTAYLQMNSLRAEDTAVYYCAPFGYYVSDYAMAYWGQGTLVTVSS VL: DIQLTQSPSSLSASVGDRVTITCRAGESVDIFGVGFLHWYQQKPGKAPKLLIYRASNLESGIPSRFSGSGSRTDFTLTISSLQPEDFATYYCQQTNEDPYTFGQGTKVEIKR    0.18

Batch request: EC50 for each of the following binders.
1. (Y-S1-X)p-Fab^2 with Y Gd/DOTA, S1 spacer (h), X -Met-Gly-Lys*-Z2(#N)- (Fab, V domains shown, labeling may sit on this chain; sites not stated; labeling portion (MW 1090) on amino groups of the Fab, sites and chain not stated; 1-2 per Fab by MS, also called Ex-No 43; conjugate 43) VH: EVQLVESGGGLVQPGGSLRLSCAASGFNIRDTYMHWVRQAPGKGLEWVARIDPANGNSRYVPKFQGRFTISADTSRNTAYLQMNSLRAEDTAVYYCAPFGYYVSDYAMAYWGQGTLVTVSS VL: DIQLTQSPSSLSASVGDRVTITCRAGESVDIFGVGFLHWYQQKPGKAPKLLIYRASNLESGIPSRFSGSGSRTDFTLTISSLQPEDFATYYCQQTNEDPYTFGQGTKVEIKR
2. (Y-S1-X)p-Fab^2 with Y Gd/4arm-DOTA, S1 -CH2-(1,4-Ph)-NH-C(═S)-, X -Met-Gly-Lys*-Z2(#N)- (Fab, V domains shown, labeling may sit on this chain; sites not stated; labeling portion (MW 1121) on amino groups of the Fab, sites and chain not stated; 1 per Fab by MS, also called Ex-No 54; conjugate 54) VH: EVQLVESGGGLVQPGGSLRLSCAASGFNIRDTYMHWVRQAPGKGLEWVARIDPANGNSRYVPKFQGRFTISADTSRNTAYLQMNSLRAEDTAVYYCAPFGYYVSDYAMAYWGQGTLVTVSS VL: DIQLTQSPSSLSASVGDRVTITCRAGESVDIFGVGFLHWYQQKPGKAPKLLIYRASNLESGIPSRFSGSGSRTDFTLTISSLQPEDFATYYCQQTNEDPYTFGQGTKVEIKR
3. (Y-S1-X)p-Fab^2 with Y Gd/DOTA, S1 spacer (d), X -Gly-Lys*-Z2(#N)- (Fab, V domains shown, labeling may sit on this chain; sites not stated; labeling portion (MW 954) on amino groups of the Fab, sites and chain not stated; 1-3 per Fab by MS, also called Ex-No 26; conjugate 26) VH: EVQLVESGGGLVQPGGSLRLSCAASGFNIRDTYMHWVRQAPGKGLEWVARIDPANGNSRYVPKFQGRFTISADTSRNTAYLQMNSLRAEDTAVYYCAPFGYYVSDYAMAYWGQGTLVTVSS VL: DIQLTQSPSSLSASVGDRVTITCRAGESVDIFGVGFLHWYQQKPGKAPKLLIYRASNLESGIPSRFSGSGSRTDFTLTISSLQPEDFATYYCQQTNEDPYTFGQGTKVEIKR
4. [Gd/DOTA-NH-CH2-(1,4-Ph)-NH-C(═O)-Met-Ile-NH-(CH2)2-Z1(#N)]p-Fab^2 (Fab, V domains shown, labeling may sit on this chain; sites not stated; labeling portion (MW 1074) on amino groups of the Fab, sites and chain not stated; 1-3 per Fab by MS, also called Ex-No 18; Conjugate No. 18) VH: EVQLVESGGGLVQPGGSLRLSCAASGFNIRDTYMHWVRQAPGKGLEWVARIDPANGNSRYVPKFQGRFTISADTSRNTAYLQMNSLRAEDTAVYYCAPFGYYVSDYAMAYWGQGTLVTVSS VL: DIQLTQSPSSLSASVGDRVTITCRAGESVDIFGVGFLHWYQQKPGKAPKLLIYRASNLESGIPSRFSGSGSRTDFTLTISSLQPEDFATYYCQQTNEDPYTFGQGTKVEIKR
5. (Y-S1-X)p-Fab^2 with Y Gd/DOTA, S1 -NH-(CH2)2-C(═O)-, X -Gly-Lys*-Z2(#N)- (Fab, V domains shown, labeling may sit on this chain; sites not stated; labeling portion (MW 896) on amino groups of the Fab, sites and chain not stated; 1-3 per Fab by MS, also called Ex-No 22; conjugate 22) VH: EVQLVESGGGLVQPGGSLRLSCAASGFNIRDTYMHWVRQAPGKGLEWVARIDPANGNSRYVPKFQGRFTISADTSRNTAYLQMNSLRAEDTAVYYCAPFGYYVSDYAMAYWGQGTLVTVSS VL: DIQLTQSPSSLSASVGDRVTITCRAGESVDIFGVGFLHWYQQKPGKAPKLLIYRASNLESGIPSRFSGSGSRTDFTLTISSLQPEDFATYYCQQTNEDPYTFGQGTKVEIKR

Response:
0.23
0.23
0.3
0.24
0.32

Query: Quickly give me recorded EC50 for (Y-S1-X)p-Fab^2 with Y Gd/DOTA, S1 - (bond), X -Gly-Tyr*-CH2-C(═O)-NH-(CH2)2-Z1(#S)- (Fab, V domains shown, labeling may sit on this chain; sites not stated; labeling portion (MW 1061) on amino groups of the Fab, sites and chain not stated; 1-3 per Fab by MS, also called Ex-No 7; conjugate 7) VH: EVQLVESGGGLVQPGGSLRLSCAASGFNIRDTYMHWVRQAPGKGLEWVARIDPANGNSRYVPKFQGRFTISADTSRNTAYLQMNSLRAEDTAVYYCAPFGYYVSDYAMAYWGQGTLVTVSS VL: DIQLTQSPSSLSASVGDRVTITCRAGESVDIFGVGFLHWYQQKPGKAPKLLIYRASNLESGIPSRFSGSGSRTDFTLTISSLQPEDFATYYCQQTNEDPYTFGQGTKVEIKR
Response: 0.17
